tested on: HEK-293 human embryonic kidney cells ATCC CRL-1573; conditions: read-out: HEK293 CC50; ranges obtained upon retesting, new batch
METRIC: CC50

CC(C)C([O][Pt][Cl])C1=CCCC=CCC1 (centres unmarked) [Pt4] : > 100 µM
CC1=C(C)C(C)C(c2ccc(-c3ccccc3)cc2)=C1C.Cc1ccccc1NC1=[N][Ir]([Cl])[NH]C(NS(=O)(=O)c2ccc([N+](=O)[O-])cc2)=N1 [Ir2] : 62 to 65 µM
CS(=O)(=O)[O][Pd][c]1ccccc1-c1ccccc1N.CS(=O)(=O)[O][Pd][c]1ccccc1-c1ccccc1N [Pd2] : 38 to 53 µM
C1=CCCC=CCC1.[Cl][Pd][Cl] [Pd1] : > 100 µM
Cc1c(C)c(C)[c-](C)c1C.Cc1c(C)c(C)[c-](C)c1C.[Cl-].[Cl-].[Cl-].[Cl-].[Rh+3].[Rh+3] [Rh1] : > 200 µM
c1cnc([S][Au][PH](c2ccco2)(c2ccco2)c2ccco2)nc1 [Au1] : 0.1 to 0.6 µM
Cc1c(C)c(-c2ccc(-c3ccccc3)cc2)[c-](C)c1C.Cc1ccccc1NC1=[NH+][Ir]([Cl])[NH]C(NS(=O)(=O)c2cccc3c(N(C)C)cccc23)=N1 [Ir3] : 54 to 76 µM

Moving on to the next compound.
For Cc1ccc2ccc3ccc(C)nc3c2n1.Cc1ccc2ccc3ccc(C)nc3c2n1.O=C([O][Eu]([O]C(=O)c1ccccc1F)[O]C(=O)c1ccccc1F)c1ccccc1F [Eu1] , what is its reported CC50?
> 200 µM
